Recorded values, source patent US20240246966A1.

target: Human σ2/TMEM97 receptor (Homo sapiens, UniProt Q5BJF2); test: Binding assay to human σ2/TMEM97 receptor ([3H]-DTG, transfected HEK-293 membranes); details: human σ2/TMEM97, [3H]-DTG 10 nM, binding expressed as Ki, read-out: Binding σ-2
Sequence (Q5BJF2 whole entry): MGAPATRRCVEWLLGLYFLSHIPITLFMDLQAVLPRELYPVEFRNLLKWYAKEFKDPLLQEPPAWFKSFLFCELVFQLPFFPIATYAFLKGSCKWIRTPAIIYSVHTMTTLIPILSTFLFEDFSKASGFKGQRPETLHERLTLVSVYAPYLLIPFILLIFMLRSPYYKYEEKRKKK
Recorded Ki by entry

# Smiles Text, Subject Of Test, Experimental Value
records = [
    ("COCC1CCN(Cc2cnc3c(ccn3-c3ccc(C(F)(F)F)nc3)c2)CC1", "Human σ2/TMEM97 receptor (Homo sapiens, UniProt Q5BJF2)", "0.1 to 0.5 µM"),
]

Log: Human σ2/TMEM97 receptor (Homo sapiens, UniProt Q5BJF2), compound FC(F)(F)c1cc(-c2cnn3cc(CN4CCOCC4)cnc23)ccn1 , Ki = > 1 µM

Observed Ki, Human σ2/TMEM97 receptor (Homo sapiens, UniProt Q5BJF2), FC(F)(F)c1ccncc1-c1cnn2cc(CN3CCC4(CC3)COC4)cnc12 : > 1 µM

The value of Ki recorded for FC(F)(F)c1cc(-n2ccc3cc(CN4CC5(CCOCC5)C4)cnc32)ccn1 when tested on Human σ2/TMEM97 receptor (Homo sapiens, UniProt Q5BJF2) reads < 0.1 µM

Item: Cc1nn2cc(CN3CCC4(CC3)COC4)cnc2c1-c1ccnc(C(F)(F)F)c1 | System: Human σ2/TMEM97 receptor (Homo sapiens, UniProt Q5BJF2) | Ki: 0.5 to 1 µM

# lookup: FC(F)(F)c1cc(-n2ccc3cc(CN4CCC5(CC4)COC5)cnc32)ccn1 on Human σ2/TMEM97 receptor (Homo sapiens, UniProt Q5BJF2), Ki = 0.1 to 0.5 µM
